# Tested on: IGROV1 ovarian
# experiment_notes: NCI tumour cell line growth inhibition, 48 h
value_type: TGI

Example entries and their recorded answers appear below.
{"molecule": "COc1ccccc1CNCCCN1C(=O)c2ccc3c4c(ccc(c24)C1=O)C(=O)N(CCCNCc1ccccc1OC)C3=O", "result": "0.399 µM"}
{"molecule": "O=C1c2ccccc2N1C(=O)c1ccccc1[N+](=O)[O-]", "result": "> 100 µM"}
{"molecule": "O[C@@H]1[C@H](OC2c3ccccc3-c3ccccc32)[C@H](OCc2ccccc2)[C@@H]2OC[C@H]1O2", "result": "> 100 µM"}
{"molecule": "CC(C)C(=O)Cc1ccc2ccccc2n1", "result": "> 100 µM"}
{"molecule": "Cc1ccc2c(=O)cc(-c3cc(C)sc3C)[nH]c2n1", "result": "> 100 µM"}

Parameter requested: TGI. Apply to each item below.
1. Cc1cnc2[nH]c(-c3cccc4ccccc34)cc(=O)c2c1
2. Cc1csc(=Nc2ccccc2)n1CCC(O)(P(=O)(O)O)P(=O)(O)O
3. COC(=O)c1ccc(CCC2=CC(=O)C=CC2=O)cc1
4. O=C(O)c1ccccc1/C=C1\Cc2cc3c(cc2C1=O)CCC3

["43.5 µM", "> 100 µM", "30.2 µM", "> 100 µM"]

---

# Tested on: HL-60(TB) leukemia
# experiment_notes: NCI tumour cell line growth inhibition, 48 h
Provide the reported TGI of each item.

{"molecule": "CN(CC(=O)Nc1ccccc1C(=O)O)c1ccccc1", "value_type": "TGI", "result": "> 100 µM"}
{"molecule": "CCOC(=O)c1c(Cl)c2c(n1Cc1ccccc1)-c1oncc1CCC2", "value_type": "TGI", "result": "> 100 µM"}
{"molecule": "CCC12C=C(C(=O)OC)N3c4ccccc4C4CCN(CCC1)C2C43 (stereo unspecified)", "value_type": "TGI", "result": "> 100 µM"}
{"molecule": "CCc1nc(N)nc(N)c1-c1ccc(N2CCOCC2)c(N=[N+]=[N-])c1", "value_type": "TGI", "result": "> 79.2 µM"}

Count: 2. Required value per item: TGI.
1. CC1=C(C(=O)Nc2ccc3[nH]ncc3c2)C(c2ccc(F)cc2)N=C(c2ccc(C(F)(F)F)nc2)N1 (stereo unspecified)
2. Cc1ccc2c(c1C)CC1(Cc3ccc(C)c(C)c3C1=O)C2=O (stereo unspecified)

1: > 25 µM; 2: > 100 µM

---

Record form. Attribute: TGI. Fill in for each entry.
# System: A549 NSCLC
# experiment_notes: NCI tumour cell line growth inhibition, 48 h

# return TGI for each item in the list
1. O=C1c2ccccc2C2(O)N(c3ccccc3)C(=S)N(c3ccccc3)C12O (stereo not drawn)
2. Cc1csc(=Nc2ccccc2)n1CCC(O)(P(=O)(O)O)P(=O)(O)O

["> 100 µM", "> 100 µM"]

Recorded result, `O=c1c2cc(Br)ccc2nc(CNc2ccccc2)n1-c1ccccc1` , TGI: > 62.7 µM

---

# Tested on: HT29 colon
# experiment_notes: NCI tumour cell line growth inhibition, 48 h
value_type: TGI

Past entries and their recorded results:
{"molecule": "CCOC(=O)C1C(NC(N)=O)N(Cc2ccccc2)C(=O)N1Cc1ccccc1 (stereo not given)", "value_type": "TGI", "result": "> 100 µM"}
{"molecule": "CCCCCCCCCCCCCCCCOP(=O)([O-])OCC[N+](C)(C)C1CC(C)(C)N(O)C(C)(C)C1", "value_type": "TGI", "result": "> 100 µM"}
{"molecule": "C#CCN(C(=O)C(F)(F)F)C(/C=C\\C(=O)OC)(C(=O)OCC)C(=O)OCC", "value_type": "TGI", "result": "> 100 µM"}
{"molecule": "COc1ccc2cc3n(c(=O)c2c1)CCc1c-3cc(OC)c(OC)c1OC", "value_type": "TGI", "result": "> 100 µM"}

# batch: return TGI for each of the 5 molecules below
1. O=C1/C(=C/c2ccc(Br)s2)NC(=S)N1CN1CCCCC1
2. O=[N+]([O-])c1ccc(/C=C/c2ccc(/C=C/c3ccc([N+](=O)[O-])cc3[N+](=O)[O-])cc2)c([N+](=O)[O-])c1
3. N#CC1(CCCCl)CCCCC1
4. CC1(C)CC2=NO[Se]3=C2C(=NO3)C1
5. COc1ccc(OC)c(/C=C2/C(=O)N=C(NC(C)=O)N2C)c1

> 100 µM
> 100 µM
> 100 µM
10.1 µM
> 100 µM

For each listed entry, give its TGI.
1. N#CCc1nc(-c2cc3ccccc3oc2=O)cs1
2. CCOC(=O)C#Cc1c(C(=O)OCC)nnn1[C@@H]1O[C@H](COC)[C@@H](OC)[C@H]1OC
3. c1ccc(C(NC2=NCCO2)C2CC2)cc1 (stereo not given)
4. NC(Cc1cc(I)c(Oc2ccc(O)c(I)c2)c(I)c1)C(=O)O (stereo not given)
5. CC(C)CCCC(C)C1CCC2C3CC([N+](=O)[O-])=C4CC(O)CCC4(C)C3CCC12C (stereo not given)
6. CC[C@]12C=CCN3CC[C@@]4(c5ccc(OC)cc5N(C)[C@H]4[C@@](O)(C(=O)OC)[C@@H]1OC(=O)CCCN1CCN(CCCC(=O)O[C@@H]4[C@]5(CC)C=CCN6CC[C@@]7(c8ccc(OC)cc8N(C)[C@H]7[C@@]4(O)C(=O)OC)[C@@H]65)CC1)[C@@H]32
7. O=C1c2ccccc2C2(O)N(c3ccccc3)C(=S)N(c3ccccc3)C12O (stereo not given)

> 100 µM
6.49 µM
> 100 µM
> 100 µM
55.5 µM
1.2 µM
> 100 µM

Go through the list and state TGI for each entry.
1. O=C(c1c(F)c(F)c(F)c(F)c1F)n1c(=S)n(C(=O)c2c(F)c(F)c(F)c(F)c2F)c2ccccc21
2. CN(CC(=O)Nc1ccccc1C(=O)O)c1ccccc1
3. Nc1nccc(NCC2(CO)CC(CCc3ccccc3)C2)n1 (stereo not given)
4. Cc1cccc(Oc2ccc(Nc3ncnc4ccc(NC(=O)CN(C)C)cc34)cc2Cl)c1

1. > 100 µM
2. > 100 µM
3. 23.9 µM
4. 3.77 µM

---

# Tested on: SW-620 colon
# experiment_notes: NCI tumour cell line growth inhibition, 48 h; in the data active = GI50 below about 0.43 µM; inactive = the rest
Pick one: true (1) (active), false (0) (inactive)

Illustrative cases are given below, each with its answer.
{"molecule": "COC(=O)C(C)NP(=O)(OCc1cccc(Cn2cnc3c(N)ncnc32)c1)Oc1ccccc1 (stereo not drawn)", "assigned_class": "false (0)"}
{"molecule": "O=C1Nc2ccc(Cl)cc2/C1=N/c1nc(-c2ccc(Cl)cc2)cs1", "assigned_class": "false (0)"}

Here is the next item to consider.
// param item: `COc1ccccc1CNCCCN1C(=O)c2ccc3c4c(ccc(c24)C1=O)C(=O)N(CCCNCc1ccccc1OC)C3=O` ; yields the recorded call true (1)

---

# System: HL-60(TB) leukemia
# experiment_notes: NCI tumour cell line growth inhibition, 48 h
Assignment: determine reported TGI for the given compounds.

{"compound": "O=S(=O)(O)C(c1ccccc1)C(O)c1ccccc1 (centres undefined)", "target_desc": "HL-60(TB) leukemia", "value_type": "TGI", "result": "> 100 µM"}

State the recorded TGI for every item in the following list.
1. COC(=O)/C(=N\N)C(C(=O)C(=O)Nc1cc(Cl)ccc1Cl)c1nc2ccc([N+](=O)[O-])cc2[nH]c1=O (centres undefined)
2. O=C(O)CSc1cc(NS(=O)(=O)c2ccc(Br)cc2)c2ccccc2c1O

["> 100 µM", "> 26.8 µM"]

Hey, can you go through the list below and give me TGI for every item?
1. O=C(/C=C(\[O-])c1ccccc1)CCCCCCC(=O)/C=C(\[O-])c1ccccc1.O=C(/C=C(\[O-])c1ccccc1)CCCCCCC(=O)/C=C(\[O-])c1ccccc1.O=C(/C=C(\[O-])c1ccccc1)CCCCCCC(=O)/C=C(\[O-])c1ccccc1.[Y+3].[Y+3]
2. O=C(O)CCC(NC(=O)c1ccc(Nc2nc3ccc(C(F)(F)F)cc3nc2C(=O)O)cc1)C(=O)O (centres undefined)
3. N#CC1=C(S)N(C2OC(CO)C(O)C(O)C2O)C(c2ccccc2)=CC1c1ccco1 (centres undefined)
4. CC(C)(C)OC(=O)/N=C/c1c(O)c2ccccc2oc1=O

> 50 µM
> 100 µM
> 100 µM
> 100 µM

Hi there! I need TGI for each item below, if you can.
1. CC(=O)O[C@H]1C[C@@H]2[C@@]3(C)CC[C@H]4C[C@@]4(C)[C@@H]3CC[C@@]2(C)C2=CCC3=C(COC3=O)[C@]21C
2. COC(=O)C(=O)C(C(=O)C(=O)Nc1cccc(OC)c1)c1nc2ccc(Cl)cc2[nH]c1=O (centres undefined)

1: > 100 µM; 2: > 100 µM

All figures here come from PubChem BioAssay (NCI).
